- test-protocol: SELE mRNA upregulation in endothelial cells – cell-based, HUVEC, RT-qPCR, dry powder, orthogonal assay for E-selectin inducer project, confirmation (AID 1117270)
- condition-notes: 7 h; at 38 µM unless noted
Entries with a potency or affinity are not part of this list. Calls of active or inactive are those of the source.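 Rule for the calls: active = compounds with a valid dose curve toward the stimulated control whose half-maximal dose is at most twice the top dose; inconclusive = curve fit judged invalid or of poor quality; inactive = the rest.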
measurement-kind: max activity

In [3]: df
Out[3]:
                                   compound                   recorded_value
0                    COc1ccc(Nc2ccccc2N)cc1                 12.2% (inactive)
1   CNc1ccccc1C(C)(C)c1cc(-c2cccc(OC)c2)no1  -5.8% [at 0.0001 µM] (inactive)
2      Cc1ccc(CSc2nc3[nH]ncc3c(=O)[nH]2)cc1   8.8% [at 0.0001 µM] (inactive)
3  CCc1cccc2c1NC1(CCCC1)CC2C (configuration not stated)       7.51% [at 5 µM] (inactive)
4  Cc1ccc(S(=O)(=O)NCc2ccc3c(c2)cc(C)n3C)cc1                 4.64% (inactive)
5  COc1cc(CC2C(=O)Nc3ccccc32)cc(C)c1O (configuration not stated)   8.57% [at 0.038 µM] (inactive)
6      OCc1ccc(-c2nn(Cc3ccccc3)c3ccccc23)o1      6.5% [at 2.6 µM] (inactive)
